Exercise: for every item that follows, state its recorded GI50.
tested on: promyelocytic HL-60 leukemia; assay: In vitro cytotoxicity, Calcein AM assay, HL60; type: cell-based, human; settings: 72 hours

Field: example entries. Status: answers known.
>>> result("COc1cccc(CNc2ncnc3c2ncn3C2OC(CO)C(O)C2O)c1O (stereo not shown) [2-hydroxy-3-methoxybenzylamino, reference compound]")
"9.5 µM"
>>> result("COc1ccc(CNc2nc(Cl)nc3c2ncn3C2OC(CO)C(O)C2O)c(O)c1 (stereo not shown)")
"> 100 µM"
>>> result("COc1c(O)cccc1CNc1nc(Cl)nc2c1ncn2C1OC(CO)C(O)C1O (stereo not shown)")
"> 100 µM"
>>> result("Cc1ccc(O)c(CNc2ncnc3c2ncn3C2OC(CO)C(O)C2O)c1 (stereo not shown) [2-hydroxy-5-methylbenzylamino, reference compound]")
"10 µM"
>>> result("OC[C@H]1O[C@@H](n2cnc3c(NCc4cc(F)ccc4O)ncnc32)[C@H](O)[C@@H]1O [2-hydroxy-5-fluorobenzylamino, reference compound]")
"24 µM"
>>> result("COc1c(O)cccc1CNc1ncnc2c1ncn2[C@@H]1O[C@H](CO)[C@@H](O)[C@H]1O [2-methoxy-3-hydroxybenzylamino, reference compound]")
"10 µM"
>>> result("OC[C@H]1O[C@@H](n2cnc3c(NCc4cc(Cl)ccc4O)nc(Cl)nc32)[C@H](O)[C@@H]1O")
"> 100 µM"
>>> result("OCC1OC(n2cnc3c(NCc4cc(Cl)ccc4O)ncnc32)C(O)C1O (stereo not shown) [2-hydroxy-5-chlorobenzylamino, reference compound]")
"1.6 µM"

Working through the 2 compounds below one at a time, give GI50 for each.
1. COc1ccc(CNc2ncnc3c2ncn3[C@@H]2O[C@H](CO)[C@@H](O)[C@H]2O)c(O)c1 [2-hydroxy-4-methoxybenzylamino, reference compound]
2. Cc1cccc(CNc2nc(Cl)nc3c2ncn3C2OC(CO)C(O)C2O)c1O (stereo not shown)

Marked response:
["0.15 µM", "> 100 µM"]

###

test system: Human T-lymphoblastic leukemia cell line CEM; assay: In vitro cytotoxicity, Calcein AM assay, CEM; format: cell-based; conditions: 72 hours
endpoint_label: GI50

>>> result("OC[C@H]1O[C@@H](n2cnc3c(NCc4cc(Cl)ccc4O)nc(Cl)nc32)[C@H](O)[C@@H]1O")
"> 100 µM"
>>> result("Cc1cccc(CNc2nc(Cl)nc3c2ncn3C2OC(CO)C(O)C2O)c1O (stereo not shown)")
"> 100 µM"
>>> result("COc1c(O)cccc1CNc1nc(Cl)nc2c1ncn2C1OC(CO)C(O)C1O (stereo not shown)")
"> 100 µM"

For the next question, use this compound.
Exam item: Name the reported GI50 value associated with the compound OCC1OC(n2cnc3c(NCc4cc(Cl)ccc4O)ncnc32)C(O)C1O (stereo not shown) [2-hydroxy-5-chlorobenzylamino, reference compound]
Marked response: 2.4 µM

###

molecular target: β-adrenergic receptors; test: Isoproterenol-induced cAMP synthesis in rat C6 glioma (anti-inflammatory activity); conditions: cellular cAMP by enzyme immunoassay, dose-response curve in duplicate, read-out: I50
endpoint_label: IC50 (µM)
Answers are plain numbers, in µM.

Field: example entries. Status: answers known.
>>> quantitative_result("Cc1cccc(CNc2nc(Cl)nc3c2ncn3C2OC(CO)C(O)C2O)c1O (stereo not shown)")
18.7
>>> quantitative_result("COc1cccc(CNc2nc(F)nc3c2ncn3C2OC(CO)C(O)C2O)c1O (stereo not shown)")
4.2
>>> quantitative_result("OCC1OC(n2cnc3c(NCc4cc(F)ccc4O)nc(Cl)nc32)C(O)C1O (stereo not shown)")
15.7
>>> quantitative_result("OC[C@H]1O[C@@H](n2cnc3c(NCc4cc(Cl)ccc4O)nc(Cl)nc32)[C@H](O)[C@@H]1O")
12.4
>>> quantitative_result("OCC1OC(n2cnc3c(NCc4cc(Cl)ccc4O)nc(F)nc32)C(O)C1O (stereo not shown)")
10.8

Working through the 2 molecules below one at a time, give IC50 for each.
1. COc1cccc(CNc2nc(Cl)nc3c2ncn3C2OC(CO)C(O)C2O)c1O (stereo not shown)
2. OCC1OC(n2cnc3c(NCc4cc(F)ccc4O)nc(F)nc32)C(O)C1O (stereo not shown)

Marked response:
[7.5, 13.6]

These entries and their values trace back to patent US20140066394A1.
